Target: T1, HLA-A*02:01 (human)
T1 construct: Captured on streptavidin plates and detected with anti-b2m; also called peptide-receptive MHC molecules; MHC class I
Experiment: UV-ligand exchange, anti-b2m ELISA; peptide exchange yield grade (+ >=10%, ++ >=20%, +++ >=50, ++++ >=75%)
measured-attribute: peptide exchange yield

[[record]]
binder = "FLLRFSQDNA"
measured_attribute = "peptide exchange yield"
measured_result = "20 to 50%"

[[record]]
binder = "RLPNAGTQV"
measured_attribute = "peptide exchange yield"
measured_result = "≥ 75%"

[[record]]
binder = "MLAEKLLQA"
measured_attribute = "peptide exchange yield"
measured_result = "10 to 20%"

[[record]]
binder = "FLDNGPKTI"
measured_attribute = "peptide exchange yield"
measured_result = "50 to 75%"

[[record]]
binder = "LLDEKVQSV"
measured_attribute = "peptide exchange yield"
measured_result = "50 to 75%"

[[record]]
binder = "LLPPPPPPA"
measured_attribute = "peptide exchange yield"
measured_result = "50 to 75%"

[[record]]
binder = "GAIDLLHNV"
measured_attribute = "peptide exchange yield"
measured_result = "20 to 50%"

[[record]]
binder = "GLESEELEPEEL"
measured_attribute = "peptide exchange yield"
measured_result = "20 to 50%"

[[record]]
binder = "FLLDQVQLGL"
measured_attribute = "peptide exchange yield"
measured_result = "50 to 75%"

[[record]]
binder = "GLLVGSEKVTM"
measured_attribute = "peptide exchange yield"
measured_result = "50 to 75%"

[[record]]
binder = "LLFAGTMTV"
measured_attribute = "peptide exchange yield"
measured_result = "20 to 50%"


The measurements presented in this section are drawn from patent US20180282393A1.
